- measured-target: CYP2C19 (Homo sapiens)
- Construct: from tissue; host or cells: human liver microsomes
- Sequence (P33261 whole entry): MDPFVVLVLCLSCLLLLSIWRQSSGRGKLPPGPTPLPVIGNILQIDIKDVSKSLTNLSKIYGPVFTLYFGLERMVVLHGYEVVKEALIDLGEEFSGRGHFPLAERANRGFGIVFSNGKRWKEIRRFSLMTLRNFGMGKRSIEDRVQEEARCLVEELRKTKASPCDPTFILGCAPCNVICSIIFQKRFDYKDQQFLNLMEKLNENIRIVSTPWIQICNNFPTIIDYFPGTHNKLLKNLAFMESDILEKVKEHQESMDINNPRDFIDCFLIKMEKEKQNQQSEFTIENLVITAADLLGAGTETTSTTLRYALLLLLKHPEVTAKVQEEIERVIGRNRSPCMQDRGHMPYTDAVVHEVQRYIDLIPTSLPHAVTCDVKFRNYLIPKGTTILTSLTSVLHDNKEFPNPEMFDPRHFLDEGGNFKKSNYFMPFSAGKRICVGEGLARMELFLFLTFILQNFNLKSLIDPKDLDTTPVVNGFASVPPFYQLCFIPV
- protocol: Inhibition of human liver microsomal CYP2C19
- Type: in vitro ADME
- condition-parameters: human liver microsomes, 10 μM test substance; read-out: Relative inhibition rate (%) CYP2C19
assay-readout: inhibition at 10 µM (%)

• CCCC[C@](C)(CO)Nc1nc(N)nc2cc(-c3cc(=O)[nH]cc3COC)cnc12 [Example 51] = 22.1
• CCCC[C@](C)(CO)Nc1nc(N)nc2cc(-c3cc(=O)[nH]cc3CN(C)CCOC)cnc12 [Example 21] = 10.5
• CCCC[C@](C)(CO)Nc1nc(N)nc2cc(-c3cc(=O)[nH]cc3CN(C)CCOC)ccc12 [Example 54] = 0.8
• CCCC[C@](C)(CO)Nc1nc(N)nc2cc(-c3cc(=O)n(C)cc3CN3CCCCC3)ccc12 [Example 8] = 9.3
• CCCC[C@](C)(CO)Nc1nc(N)nc2cc(-c3cc(=O)[nH]cc3CN(C)C)cnc12 [Example 50] = 11.4

1 = CCCC[C@](C)(CO)Nc1nc(N)nc2cc(-c3cc(=O)n(C)cc3CN(C)CCO)ccc12 [Example 64]
2 = C=CCCN(C)Cc1c[nH]c(=O)cc1-c1ccc2c(N[C@@](C)(CO)CCCC)nc(N)nc2c1 [Example 35]
Task: In the pair 1 and 2 , the larger recorded inhibition at 10 µM belongs to which? When you have decided, please share the label of that item.
Result: 2

a = CCCCN(C)Cc1cn(C)c(=O)cc1-c1ccc2c(N[C@@](C)(CO)CCCC)nc(N)nc2c1 [Example 56]
b = CCCCN(C)Cc1c[nH]c(=O)cc1-c1ccc2c(N[C@@](C)(CO)CCCC)nc(N)nc2c1 [Example 36]
c = CCCC[C@](C)(CO)Nc1nc(N)nc2cc(-c3cc(=O)n(C)cc3CN(C)CCOC)ccc12 [Example 55]
Task: // sort entries: inhibition at 10 µM, high to low # output: labels, in the requested order
Result: c, a, b

----------
- measured-target: hTLR8 (Homo sapiens, UniProt Q9NR97)
- Sequence (Q9NR97 27-1041): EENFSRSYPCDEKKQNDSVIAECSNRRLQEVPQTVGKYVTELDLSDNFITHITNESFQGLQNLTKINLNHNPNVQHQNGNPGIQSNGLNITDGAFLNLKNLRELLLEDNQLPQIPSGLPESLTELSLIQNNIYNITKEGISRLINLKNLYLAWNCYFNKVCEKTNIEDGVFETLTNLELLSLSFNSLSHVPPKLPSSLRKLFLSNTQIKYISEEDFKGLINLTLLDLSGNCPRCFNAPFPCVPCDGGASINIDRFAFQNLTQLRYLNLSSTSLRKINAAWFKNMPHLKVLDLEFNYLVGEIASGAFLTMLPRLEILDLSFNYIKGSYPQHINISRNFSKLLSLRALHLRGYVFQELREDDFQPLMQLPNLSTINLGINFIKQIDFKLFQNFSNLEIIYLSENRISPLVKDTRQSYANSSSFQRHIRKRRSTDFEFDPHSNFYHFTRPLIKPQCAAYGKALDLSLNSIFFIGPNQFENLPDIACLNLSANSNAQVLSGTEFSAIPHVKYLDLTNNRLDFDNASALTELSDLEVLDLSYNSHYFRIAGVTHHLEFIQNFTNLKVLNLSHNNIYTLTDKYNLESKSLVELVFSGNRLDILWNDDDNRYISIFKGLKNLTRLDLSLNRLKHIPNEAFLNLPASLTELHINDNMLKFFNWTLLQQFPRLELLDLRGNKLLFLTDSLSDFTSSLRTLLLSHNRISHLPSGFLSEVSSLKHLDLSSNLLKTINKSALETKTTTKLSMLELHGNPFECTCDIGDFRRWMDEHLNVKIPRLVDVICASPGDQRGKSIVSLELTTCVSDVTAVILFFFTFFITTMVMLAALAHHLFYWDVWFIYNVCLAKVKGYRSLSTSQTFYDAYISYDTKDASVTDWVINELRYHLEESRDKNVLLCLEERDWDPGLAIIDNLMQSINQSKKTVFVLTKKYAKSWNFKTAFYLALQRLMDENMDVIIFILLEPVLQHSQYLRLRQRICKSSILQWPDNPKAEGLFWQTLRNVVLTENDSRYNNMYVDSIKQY
- protocol: Agonistic activity on human TLR8 in HEK-Blue hTLR8 cells (QUANTI-Blue)
- condition-parameters: 24 h incubation, OD650, read-out: hTLR 8 EC50
assay-readout: EC50 (nM)

Here is how some molecules turned out for EC50.
• CCCC[C@](C)(CO)Nc1nc(N)nc2cc(-c3cc(=O)[nH]cc3CSC)cnc12 = 30
• C=CCCN(C)Cc1cn(C)c(=O)cc1-c1ccc2c(N[C@](C)(CCCC)CNC(=O)c3cnn(C)c3)nc(N)nc2c1 = 569
• CCCCN(C)Cc1c[nH]c(=O)cc1-c1ccc2c(N[C@@](C)(CO)CCCC)nc(N)nc2c1 = 66
• CCCC[C@](C)(CO)Nc1nc(N)nc2cc(-c3cc(=O)[nH]cc3COC)ccc12 = 42
• CCCC[C@](C)(CO)Nc1nc(N)nc2cc(-c3cc(=O)[nH]cc3CN(C)CCOC)ccc12 = 106

P = CCCC[C@](C)(CO)Nc1nc(N)nc2cc(-c3cc(=S)[nH]cc3CN(C)CCOC)cnc12
Q = CC#CCN(C)Cc1c[nH]c(=O)cc1-c1cnc2c(N[C@@](C)(CO)CCCC)nc(N)nc2c1
Task: Could you point out whether the larger EC50 belongs to P or to Q ? Return value: the label identifying the chosen record.
Result: Q

----------
- Test system: CYP3A4
- protocol: Induction of CYP3A4 in frozen human hepatocytes
- Type: in vitro ADME
- condition-parameters: 72 h induction, concentration and readout not stated
assay-readout: CYP3A4 Induction fold relative to blank control

Example cases with answers are listed next.
* CCCC[C@](C)(CO)Nc1nc(N)nc2cc(F)cnc12 [Comparative compounds, reference compound] | 9.5
* CCCCN(C)Cc1c[nH]c(=O)cc1-c1cnc2c(N[C@@](C)(CO)CCCC)nc(N)nc2c1 | 2.0
* CCCC[C@](C)(CO)Nc1nc(N)nc2cc(-c3cc(=O)n(C)cc3CN3CCCCC3)ccc12 | 0.6
* CCCC[C@](C)(CO)Nc1nc(N)nc2cc(-c3cc(=O)[nH]cc3CN(C)CCOC)cnc12 | 1.4

1 = C=CCCN(C)Cc1c[nH]c(=O)cc1-c1ccc2c(N[C@@](C)(CO)CCCC)nc(N)nc2c1
2 = C=CCCN(C)Cc1c[nH]c(=O)cc1-c1cnc2c(N[C@@](C)(CO)CCCC)nc(N)nc2c1
Task: // task: argmin of CYP3A4 Induction fold relative to blank control over [ 1 , 2 ] Write down the label attached to your selection.
Result: 1
(1: 1.3, 2: 4.2)

----------
- measured-target: hTLR7 (Homo sapiens, UniProt Q9NYK1)
- Sequence (Q9NYK1 27-1049): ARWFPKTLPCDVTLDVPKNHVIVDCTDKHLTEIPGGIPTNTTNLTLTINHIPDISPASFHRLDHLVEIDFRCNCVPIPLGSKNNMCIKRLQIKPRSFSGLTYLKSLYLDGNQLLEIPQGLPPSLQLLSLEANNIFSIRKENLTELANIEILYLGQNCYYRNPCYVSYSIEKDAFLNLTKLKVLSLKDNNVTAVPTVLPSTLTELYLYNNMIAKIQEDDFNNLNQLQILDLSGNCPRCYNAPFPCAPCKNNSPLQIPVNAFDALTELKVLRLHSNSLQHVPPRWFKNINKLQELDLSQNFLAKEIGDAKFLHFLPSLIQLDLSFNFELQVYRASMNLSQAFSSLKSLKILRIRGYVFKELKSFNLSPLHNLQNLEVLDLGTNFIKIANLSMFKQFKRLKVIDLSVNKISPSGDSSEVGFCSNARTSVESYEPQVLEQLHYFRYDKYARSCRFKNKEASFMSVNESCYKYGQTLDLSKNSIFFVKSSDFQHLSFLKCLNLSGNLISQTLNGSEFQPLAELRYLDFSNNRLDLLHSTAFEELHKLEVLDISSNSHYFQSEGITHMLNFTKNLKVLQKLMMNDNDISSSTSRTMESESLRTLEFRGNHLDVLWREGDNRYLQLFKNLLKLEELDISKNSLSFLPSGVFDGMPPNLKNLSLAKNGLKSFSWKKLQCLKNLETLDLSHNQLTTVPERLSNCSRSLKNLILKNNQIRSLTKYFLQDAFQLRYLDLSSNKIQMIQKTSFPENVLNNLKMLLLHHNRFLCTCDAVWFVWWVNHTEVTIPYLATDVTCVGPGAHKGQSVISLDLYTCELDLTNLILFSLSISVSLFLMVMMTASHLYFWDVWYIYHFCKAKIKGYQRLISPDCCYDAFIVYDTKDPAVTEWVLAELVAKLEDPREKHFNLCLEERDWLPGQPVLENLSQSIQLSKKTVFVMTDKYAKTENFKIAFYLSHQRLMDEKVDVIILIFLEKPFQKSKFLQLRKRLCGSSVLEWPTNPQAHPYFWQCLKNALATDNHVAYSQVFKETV
- protocol: Agonistic activity on human TLR7 in HEK-Blue hTLR7 cells (QUANTI-Blue)
- condition-parameters: 24 h incubation, OD650, read-out: hTLR 7 EC50
pEC50: −log10 of the molar value.
Listed below: pEC50 values for each entry.

- C=CCCN(C)Cc1cn(C)c(=O)cc1-c1ccc2c(N[C@](C)(CCCC)CNC(=O)c3cnn(C)c3)nc(N)nc2c1: < 4.00
- CCCC[C@](C)(CO)Nc1nc(N)nc2cc(-c3cc(=O)[nH]cc3CN3CCOCC3)cnc12: < 4.00
- CCCC[C@](C)(CO)Nc1nc(N)nc2cc(-c3cc(=O)[nH]cc3CN(C)C)cnc12: < 4.00
- CCCC[C@](C)(CO)Nc1nc(N)nc2cc(-c3cc(=O)[nH]cc3CN(C)CCc3ccccc3)ccc12: 4.63

The record that follows has no pEC50 shown yet.
Task: For hTLR7 (Homo sapiens, UniProt Q9NYK1), provide pEC50 of CCCCN(CCCC)Cc1cn(C)c(=O)cc1-c1cnc2c(N[C@@](C)(CO)CCCC)nc(N)nc2c1 please.
Result: < 4.00

----------
- System: CYP1A2
- protocol: Induction of CYP1A2 in frozen human hepatocytes
- Format: in vitro ADME
- condition-parameters: 72 h induction, concentration and readout not stated
assay-readout: CYP1A2 Induction fold relative to blank control

• C=CCCN(C)Cc1c[nH]c(=O)cc1-c1ccc2c(N[C@@](C)(CO)CCCC)nc(N)nc2c1 = 0.4
• CCCCN(C)Cc1c[nH]c(=O)cc1-c1cnc2c(N[C@@](C)(CO)CCCC)nc(N)nc2c1 = 0.8
• CCCC[C@](C)(CO)Nc1nc(N)nc2cc(-c3cc(=O)n(C)cc3CN3CCCCC3)ccc12 = 0.7

a = C=CCCN(C)Cc1c[nH]c(=O)cc1-c1cnc2c(N[C@@](C)(CO)CCCC)nc(N)nc2c1
b = CCCC[C@](C)(CO)Nc1nc(N)nc2cc(F)cnc12 [Comparative compounds, reference compound]
Task: Which entry has a larger number for CYP1A2 Induction fold relative to blank control, a or b ? Could you answer with the label of the item you picked?
Result: b

----------
- measured-target: CYP2D6 (Homo sapiens)
- Construct: from tissue; host or cells: human liver microsomes
- Sequence (P10635 whole entry): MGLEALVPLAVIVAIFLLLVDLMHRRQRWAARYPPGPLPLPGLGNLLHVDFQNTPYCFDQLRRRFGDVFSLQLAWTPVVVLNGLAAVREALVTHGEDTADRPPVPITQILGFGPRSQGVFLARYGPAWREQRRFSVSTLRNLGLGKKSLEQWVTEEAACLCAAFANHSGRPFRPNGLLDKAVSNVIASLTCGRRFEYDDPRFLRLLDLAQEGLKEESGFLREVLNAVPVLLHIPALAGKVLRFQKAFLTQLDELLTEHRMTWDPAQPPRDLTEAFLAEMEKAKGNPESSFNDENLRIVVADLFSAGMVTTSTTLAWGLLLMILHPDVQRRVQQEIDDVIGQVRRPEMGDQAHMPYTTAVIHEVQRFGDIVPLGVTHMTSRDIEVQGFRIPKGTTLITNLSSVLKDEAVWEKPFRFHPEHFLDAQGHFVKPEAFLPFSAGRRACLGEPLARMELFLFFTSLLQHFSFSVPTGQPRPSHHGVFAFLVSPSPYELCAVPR
- protocol: Inhibition of human liver microsomal CYP2D6
- Format: in vitro ADME
- condition-parameters: human liver microsomes, 10 μM test substance; read-out: Relative inhibition rate (%) CYP2D6
assay-readout: inhibition at 10 µM (%)

Examples with answers:
- CCCCN(C)Cc1c[nH]c(=O)cc1-c1cnc2c(N[C@@](C)(CO)CCCC)nc(N)nc2c1: 12.9
- CCCCN(C)Cc1c[nH]c(=O)cc1-c1ccc2c(N[C@@](C)(CO)CCCC)nc(N)nc2c1: 20.1
- CCCC[C@](C)(CO)Nc1nc(N)nc2cc(-c3cc(=O)[nH]cc3COC)cnc12: 9.6
- C=CCCN(C)Cc1c[nH]c(=O)cc1-c1ccc2c(N[C@@](C)(CO)CCCC)nc(N)nc2c1: 31.4
- CCCCN(C)Cc1cn(C)c(=O)cc1-c1ccc2c(N[C@@](C)(CO)CCCC)nc(N)nc2c1: 31.7

1 = CCCC[C@](C)(CO)Nc1nc(N)nc2cc(-c3cc(=O)[nH]cc3CN(C)C)cnc12
2 = CCCC[C@](C)(CO)Nc1nc(N)nc2cc(-c3cc(=O)n(C)cc3CN(C)CCOC)ccc12
Task: Looking only at measured inhibition at 10 µM, which entry is lower, 1 or 2 ? When you have decided, please share the label of that item.
Result: 1
(1: 9.7%, 2: 19.1%)

----------
- measured-target: hTLR8 (Homo sapiens, UniProt Q9NR97)
- Construct: expressed in transfected cells; host or cells: HEK-Blue hTLR8 cells
- protocol: Agonistic activity on human TLR8 in HEK-Blue hTLR8 cells (QUANTI-Blue)
- Type: cell-based
- condition-parameters: 24 h incubation, OD650, read-out: hTLR 8 EC50
assay-readout: EC50 (nM)

* CCCC[C@](C)(CO)Nc1nc(N)nc2cc(-c3cc(=O)[nH]cc3CN(C)C)ccc12 | 56

1 = CCCC[C@](C)(CO)Nc1nc(N)nc2cc(-c3cc(=O)n(C)cc3CN(C)CCO)ccc12
2 = C=CCCN(C)Cc1c[nH]c(=O)cc1-c1cnc2c(N[C@@H](CO)CCCC)nc(N)nc2c1
Task: I'd appreciate it if you could identify which of 1 and 2 has the greater EC50. Record your answer as the label of the chosen record.
Result: 2
